Where these numbers come from: patent US20220127350A1

# TARGET_DESC: T1, cynomolgus monkey IL-17A (Macaca fascicularis (cynomolgus monkey))
# T1 construct: also called cyno IL-17A; cyno IL17A
# RUN_DESCRIPTION: SPR (Biacore T200)

BINDER | KD, cyno/KD, human
PRO592 (humanized anti-IL-17A scFv, STR graft of 27-31-C04) (scFv, VL-linker-VH; also called 27-31-C04-sc02; 27_31_C04_sc02) scFv: DIQMTQSPSSLSASVGDRVTITCQASESIYRYLSWYQQKPGKAPKLLIYLASTLTSGVPSRFSGSGSGTDFTLTISSLQPEDFATYYCQSNFGTASTTYYNTFGGGTKLTVLGGGGGSGGGGSGGGGSGGGGSEVQLVESGGGLVQPGGSLTLSCAASGFSFSGFYYMCWVRQAPGKGLEWIGCIDTGDGTTYYASWAKGRFTISRDNSKNTVYLQMNSLRAEDTAVYYCARDAAYGGYAYPAHGMDLWGPGTLVTVSS | 0.44
A2 (humanized anti-IL-17A scFv, STR graft of 27-07-G02) (scFv, VL-linker-VH; also called 27-07-G02-sc02) scFv: DIQMTQSPSSLSASVGDRVTITCQASQTINYWLAWYQQKPGKPPKLLIYRASTLASGVPSRFSGSGSGTDFTLTISSLQPEDFATYYCQNYYYSTSRSYGFGGGTKLTVLGGGGGSGGGGSGGGGSGGGGSEVQLVESGGGLVKPEGSLRLSCAASGFSFSSDYWMCWVRQAPGKGLEWIACIYAGDVDDTDYASWARGRFTISRDNSKNTVYLQMNSLRAEDTAVYYCARVDGFDITYFDLWGQGTLVTVSS | 1.69
PRO571 (humanized anti-IL-17A scFv, CDR graft of 27-31-C04) (scFv, VL-linker-VH; also called 27-31-C04-sc01; 27_31_C04_sc01) scFv: DIQMTQSPSSLSASVGDRVTITCQASESIYRYLSWYQQKPGKAPKLLIYLASTLTSGVPSRFSGSGSGTDFTLTISSLQPEDFATYYCQSNFGTASTTYYNTFGGGTKLTVLGGGGGSGGGGSGGGGSGGGGSEVQLVESGGGLVQPGGSLRLSCAASGFSFSGFYYMCWVRQAPGKGLEWIGCIDTGDGTTYYASWAKGRFTISRDNSKNTVYLQMNSLRAEDTAVYYCARDAAYGGYAYPAHGMDLWGQGTLVTVSS | 0.28
A1 (humanized anti-IL-17A scFv, CDR graft of 27-07-G02) (scFv, VL-linker-VH; also called 27-07-G02-sc01; 27_07_G02_sc01) scFv: DIQMTQSPSSLSASVGDRVTITCQASQTINYWLAWYQQKPGKAPKLLIYRASTLASGVPSRFSGSGSGTDFTLTISSLQPEDFATYYCQNYYYSTSRSYGFGGGTKLTVLGGGGGSGGGGSGGGGSGGGGSEVQLVESGGGLVQPGGSLRLSCAASGFSFSSDYWMCWVRQAPGKGLEWIGCIYAGDVDDTDYASWARGRFTISRDNSKNTVYLQMNSLRAEDTAVYYCARVDGFDITYFDLWGQGTLVTVSS | 3.66
